# TARGET_UNDER_TEST: Menin-MLL (Homo sapiens)
# Construct: His-Menin (M1-L615 end); purchased BIORTUS BP9210
# Sequence (O00255 1-615 isoform O00255-1): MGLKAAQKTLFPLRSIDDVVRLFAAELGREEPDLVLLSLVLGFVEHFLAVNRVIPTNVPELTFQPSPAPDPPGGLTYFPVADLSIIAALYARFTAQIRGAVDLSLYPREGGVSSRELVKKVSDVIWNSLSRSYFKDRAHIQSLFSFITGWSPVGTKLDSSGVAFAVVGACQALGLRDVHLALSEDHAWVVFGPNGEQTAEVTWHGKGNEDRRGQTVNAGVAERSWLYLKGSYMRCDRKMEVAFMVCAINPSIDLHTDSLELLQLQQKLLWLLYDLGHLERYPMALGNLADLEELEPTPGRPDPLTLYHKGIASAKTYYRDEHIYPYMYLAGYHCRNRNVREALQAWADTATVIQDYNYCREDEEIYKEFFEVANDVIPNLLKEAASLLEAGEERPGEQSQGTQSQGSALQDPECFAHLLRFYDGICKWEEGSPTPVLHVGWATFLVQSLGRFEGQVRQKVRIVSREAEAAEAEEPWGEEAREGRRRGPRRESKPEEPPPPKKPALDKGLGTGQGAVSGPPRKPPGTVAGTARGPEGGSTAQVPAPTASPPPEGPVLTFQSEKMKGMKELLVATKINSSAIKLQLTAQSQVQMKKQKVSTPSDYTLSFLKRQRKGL
# ASSAY_DETAILS: Inhibitory activity against Menin-MLL binding (fluorescence polarization)
# EXPERIMENTAL_CONTEXT: fluorescence polarization; 150 nM His-Menin, 15 nM FITC-MLL; 25°C for 60 min; read-out: Menin-MLL IC50
ASSAY_METRIC: IC50 (nM)
Write the answer as a number in nM, unit excluded.

INSERT INTO measurements (molecule, assay_metric, test_value) VALUES
  ('CCS(=O)(=O)N1CCC(CN2CC(c3cc(-c4ccc(F)cc4C(=O)N4CCOC[C@H]4C)c4c(F)nc(C)n4c3)C2)CC1', 'IC50', 106),
  ('CCN(C(=O)c1cc(F)ccc1-c1nc(C2CN(C(CCCN3CCN(CCO)CC3)C(C)C)C2)cn2c(C)ncc12)C(C)C (stereo not shown)', 'IC50', 130),
  ('Cc1nc(F)c2c(-c3ccc(F)cc3C(=O)N3CCOC[C@H]3C)cc(C3CN([C@H](CCCN4C5CC4CN(C)C5)C(C)C)C3)cn12', 'IC50', 2.7),
  ('Cc1nc(F)c2c(-c3ccc(F)cc3C(=O)N3CCOC[C@H]3C)cc(C3CN(C(CC[C@@H]4COCCN4C)C(C)C)C3)cn12 (stereo partly shown)', 'IC50', 32),
  ('Cc1nc(F)c2c(-c3ccc(F)cc3C(=O)N(CC(F)F)C(C)C)cc(C3CN(C(=O)[C@H]4NCC[C@@H]4C)C3)cn12', 'IC50', 30);

Let's switch to this molecule now.
Notebook entry, Menin-MLL (Homo sapiens) assay: IC50 of Cc1nc(F)c2c(-c3ccc(F)cc3C(=O)N3CCOC[C@H]3C)cc(C3CN(C(CC[C@H]4COCCN4C)C(C)C)C3)cn12 (stereo partly shown) = ? 26

* * *

# System: MV-4-11 (carrying MLL-AF4)
# ASSAY_DETAILS: Inhibition of proliferation of human tumor cells (Alamar Blue, 7 days), MV-4-11
# Assay type: cell-based
# EXPERIMENTAL_CONTEXT: Homo sapiens, MV4-11, 168 h, MV-4-11 cells (carrying MLL-AF4), method calls the value GI50
Doc: threshold 6 nM (exclusive). Items with IC50 beneath it return met; others return not met.

INSERT INTO measurements (molecule, label_class) VALUES
  ('Cc1nc(F)c2c(-c3ccc(F)cc3C(=O)N3CCC[C@H]3C)cc(C3CN(C(C)C4CCOCC4)C3)cn12 (stereo partly drawn)', 'not met'),
  ('Cc1nc(F)c2c(-c3ccc(F)cc3C(=O)N3CCOC[C@H]3C)cc(C3CN([C@@H](C)C4CCOCC4)C3)cn12', 'not met'),
  ('CCN(C(=O)c1cc(F)ccc1-c1cc(C2CCN(C[C@H]3CC[C@H](NS(=O)(=O)CC)CC3)C2)cc2c1cnn2C)C(C)C (stereo partly drawn)', 'not met'),
  ('Cc1nc(F)c2c(-c3ccc(F)cc3C(=O)N3CCOC[C@H]3C)cc(C3CN([C@@H](CO[C@H]4CCCN(C)C4)C(C)C)C3)cn12', 'not met');

Dear colleague, could you confirm whether IC50 of Cc1cncc2c(-c3ccc(F)cc3C(=O)N3[C@H](C)COC[C@H]3C)cc(CC3CN(CC4CCOCC4)C3)n12 falls below 6 nM? Thanks. met

Ok, now COCC1CN(CCC[C@H](C(C)C)N2CC(c3cc(-c4ccc(F)cc4C(=O)N4CCOC[C@H]4C)c4c(F)nc(C)n4c3)C2)C1 met
